biological target: Troponin I, cardiac muscle (Homo sapiens) + Troponin T, cardiac muscle (Homo sapiens) + Troponin C, slow skeletal and cardiac muscles (Homo sapiens) (UniProt P19429+P45379+P63316); test: cardiac RTF calcium sensitivity activators, confirmation, biochemical, IANBD-TnC fluorescence, triplicate (AID 504383); details: IANBD-labeled cardiac RTF, Ca2+ sensitivity fluorescence, at 7.2 µM, tested at EC20 calcium, 0.472 mM
The campaign covered roughly 2,500 compounds. About 1,200 (48%) were called active.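 The calls were made as follows: active = mean activation above the low control average plus 3 SD, as set in the primary screen (cut at about 12% in these data); inactive = the rest.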 So high a share suggests a set chosen from earlier hits. This is one part of the list.
Outcomes: True = active, False = inactive

{"molecule": "O=C(O)C1=CC2c3ccccc3C1c1ccccc12", "group": "True"}
{"molecule": "O=C1NC(=O)N(c2cccc(Cl)c2)C(=O)/C1=C\\c1ccc(Sc2nc3ccccc3[nH]2)o1", "group": "False"}
{"molecule": "C#C[C@]1(O)CC[C@H]2[C@@H]3CCC4=Cc5nc6nc7ccccc7n6cc5C[C@]4(C)[C@H]3CC[C@@]21C", "group": "False"}
{"molecule": "CC1=C[C@@H]2c3cccc4[nH]cc(c34)C[C@H]2N(C)C1", "group": "True"}
{"molecule": "COc1ccc(-n2c(O)c(/C=C/C=Nc3ccccc3)c(=O)[nH]c2=O)cc1", "group": "False"}
{"molecule": "COc1ccc(N2C(=O)NC(=O)/C(=C\\c3cn(C)c4ccccc34)C2=O)cc1", "group": "False"}
{"molecule": "N#CC(C#N)=Cc1ccc(C=C(C#N)C#N)cc1", "group": "False"}
{"molecule": "C=Cn1ccnc1P(=S)(c1nccn1C=C)c1nccn1C=C", "group": "True"}
{"molecule": "C[C@]12CCC3C(CC[C@H]4C[C@@H](O)[C@H](O)C[C@]34C)C1CC[C@@H]2O (some centres undefined)", "group": "True"}
{"molecule": "CCCCn1c(O)c(/C=C/C=Nc2ccccc2)c(=O)[nH]c1=O", "group": "False"}
{"molecule": "COc1cccc2c1C(=O)c1c(O)c3c(c(O)c1C2=O)CC(O)(C(C)=NO)CC3OC1CC(N)C(O)C(C)O1 (centres undefined)", "group": "False"}
{"molecule": "COCCOC(=O)c1c(N)n(Cc2ccco2)c2nc3ccccc3nc12", "group": "False"}
{"molecule": "Cn1c(O)c(/C=C/C=Nc2ccccc2)c(=O)n(C)c1=S", "group": "True"}
{"molecule": "CC(C)c1ccc(N2C(=O)NC(=O)/C(=C/C=C/c3ccco3)C2=O)cc1", "group": "False"}
{"molecule": "CCN1C[C@]2(CO)CC[C@H](OC)[C@@]34C5C[C@H]6[C@H](OC)C5[C@](O)(C[C@H]6OC)[C@@H](C(OC)C23)[C@@H]14 (some centres undefined)", "group": "True"}
{"molecule": "Cc1ccc(-n2c(O)c(C=NCC3CCCO3)c(=O)[nH]c2=O)c(C)c1 (centres undefined)", "group": "False"}
{"molecule": "O=c1[nH]c(=O)n(-c2ccccc2)c(O)c1/C=C/C=Nc1ccccc1", "group": "False"}
{"molecule": "CCN(CC)c1ccc(/C=C/[N+](=O)[O-])cc1", "group": "True"}
{"molecule": "O=c1[nH]c(=S)n(-c2ccc(Br)cc2)c(O)c1C=Nc1ccc(N2CCOCC2)cc1", "group": "False"}
{"molecule": "O=C(CN1CCN(c2ccccc2F)CC1)Nc1cccnc1Cl", "group": "True"}
{"molecule": "COCCNC(=O)c1c(N)n(Cc2ccco2)c2nc3ccccc3nc12", "group": "True"}
{"molecule": "O=c1[nH]c(O)c(/C=C2\\C=Nc3ccc(OCc4ccccc4)cc32)c(=O)[nH]1", "group": "False"}
{"molecule": "Cn1c(O)c(/C=C/C=Nc2ccccc2)c(=O)n(C)c1=O", "group": "False"}
{"molecule": "CNS(=O)(=O)c1ccc(N=Cc2c(O)n(-c3ccccc3)c(=O)[nH]c2=O)cc1", "group": "True"}
{"molecule": "FC(F)(F)c1ccc2c(c1)nnn2C1CCN(Cc2nnnn2Cc2ccccc2)CC1", "group": "False"}
{"molecule": "Nc1c(C(=O)NCC2CCCO2)c2nc3ccccc3nc2n1Cc1ccco1 (centres undefined)", "group": "True"}
{"molecule": "Cc1cc(Cl)nc(N)n1", "group": "True"}
{"molecule": "C=CCn1c(O)c(C=NC2CCN(Cc3ccccc3)CC2)c(=O)[nH]c1=O", "group": "False"}
{"molecule": "CCCCCCC(=O)N/N=C/c1c(O)n(CCc2ccccc2)c(=O)[nH]c1=O", "group": "False"}
{"molecule": "O=[N+]([O-])c1ccc(N2CCCC2)c2ncccc12", "group": "True"}
{"molecule": "COc1ccc(CC(=O)N2CCN(C)CC2)cc1OC", "group": "True"}
{"molecule": "O=C1NC(=O)C(=Cc2cn(CCOc3ccc4c(c3)OCO4)c3ccccc23)C(=O)N1", "group": "True"}
{"molecule": "CCOC(=O)C1CCCN(c2ccc([N+](=O)[O-])c3nonc23)C1 (centres undefined)", "group": "True"}
{"molecule": "CCc1ccccc1N1C(=O)/C(=C/c2ccc(N3CCN(C)CC3)o2)C(=O)NC1=S", "group": "True"}
{"molecule": "Nc1ccc2nonc2c1[N+](=O)[O-]", "group": "False"}
{"molecule": "O=c1[nH]c(=O)n(Cc2ccc(F)cc2)c(O)c1/C=N/Nc1ccccc1", "group": "True"}
{"molecule": "CN1CCN(c2ccc(/C=C3\\C(=O)NC(=S)N(c4cccc(Br)c4)C3=O)o2)CC1", "group": "False"}
{"molecule": "Cc1cc(Cl)ccc1C(=O)C1CCCN(C2CCSCC2)C1 (centres undefined)", "group": "False"}
{"molecule": "Cn1cc(C=C(C#N)C#N)c2ccccc21", "group": "True"}
{"molecule": "Cc1ccc(N2C(=O)NC(=O)/C(=C\\c3ccoc3)C2=O)cc1", "group": "False"}
{"molecule": "CN1CCN(Cc2cn(C)c3ccccc23)CC1CCO (centres undefined)", "group": "True"}
{"molecule": "CCOC(=O)c1ccccc1C(=O)OCC", "group": "True"}
{"molecule": "O=c1cc(C(F)(F)F)c2cc3c4c(c2o1)CCCN4CCC3", "group": "True"}
{"molecule": "COc1ccccc1N1C(=O)NC(=O)/C(=C/c2ccc3c4c(cccc24)CC3)C1=O", "group": "False"}

Values were extracted from PubChem BioAssay AID504383.
